System: LXFA-983L
MEASUREMENT PROTOCOL: Combination 4 day growth assay (Cell TiterGlo), LXFA-983L
Assay type: cell-based
PARTICULARS: 96 h, single treatment, read-out: Absolute IC50
pIC50: −log10 of the molar value.
REPORTED ENDPOINT: pIC50

{"columns": ["STRUCTURE SMILES STRING", "TGT", "REPORTED ENDPOINT", "ASSAY VALUE"],
 "data": [
  ["CCN1CCN(Cc2ccc(Nc3ncc(F)c(-c4cc(F)c5nc(C)n(C(C)C)c5c4)n3)nc2)CC1", "LXFA-983L", "pIC50", "< 5.00"]
]}
